Listed here are binders together with their documented pKd.
# system: T1, human GARP-proTGFβ1 complex (human, UniProt Q14392 18-627; P01137 30-390, limits assumed)
# T1 construct: Exemplary entries; also called Hu GARP-proTGFβ1; huGARP proTGFb1
# T1 sequence (Q14392 18-627 limits assumed, chain 1 of 2): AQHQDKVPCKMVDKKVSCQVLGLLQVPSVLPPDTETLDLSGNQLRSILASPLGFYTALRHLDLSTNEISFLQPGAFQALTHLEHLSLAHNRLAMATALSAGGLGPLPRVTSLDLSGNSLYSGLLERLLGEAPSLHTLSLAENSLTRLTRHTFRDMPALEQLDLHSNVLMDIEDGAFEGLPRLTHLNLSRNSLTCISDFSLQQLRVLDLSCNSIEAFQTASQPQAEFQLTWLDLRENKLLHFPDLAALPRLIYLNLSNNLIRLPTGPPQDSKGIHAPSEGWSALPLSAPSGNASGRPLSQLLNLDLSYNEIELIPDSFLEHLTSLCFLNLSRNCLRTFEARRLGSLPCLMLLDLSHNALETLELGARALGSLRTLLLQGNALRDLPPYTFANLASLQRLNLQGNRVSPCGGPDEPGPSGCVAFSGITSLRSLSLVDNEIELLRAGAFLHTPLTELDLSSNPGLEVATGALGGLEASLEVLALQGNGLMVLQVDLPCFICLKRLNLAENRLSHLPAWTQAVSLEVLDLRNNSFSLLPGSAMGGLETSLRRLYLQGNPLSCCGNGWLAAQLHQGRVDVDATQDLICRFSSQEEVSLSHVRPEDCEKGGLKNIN
# T1 sequence (P01137 30-390 limits assumed, chain 2 of 2): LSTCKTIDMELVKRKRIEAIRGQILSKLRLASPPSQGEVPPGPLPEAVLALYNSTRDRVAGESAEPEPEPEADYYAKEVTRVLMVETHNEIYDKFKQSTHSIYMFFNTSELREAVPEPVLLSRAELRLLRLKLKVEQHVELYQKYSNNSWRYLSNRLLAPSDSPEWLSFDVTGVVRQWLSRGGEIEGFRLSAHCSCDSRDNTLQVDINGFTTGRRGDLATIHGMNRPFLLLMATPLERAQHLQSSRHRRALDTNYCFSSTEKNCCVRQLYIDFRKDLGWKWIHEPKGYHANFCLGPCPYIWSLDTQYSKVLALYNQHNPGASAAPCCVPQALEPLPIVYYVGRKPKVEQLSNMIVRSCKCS
# measurement_description: Octet BLI, IgG captured
When answering, recall that pKd equals minus log10 of the concentration in mol/L, and write that number alone.

// known answers, use as guide
binder	pKd
SR-AB34 (antibody, IgG1, V domains shown, Cycle 3, lineage SR-AB22) VH: QVQLVESGGGVVQPGRSLRLSCAASGFTFRSYVMHWVRQAPGKGLEWVAVISHEGSLKYYADSVKGRFTISRDNSKNTLYLQMNSLRAEDTAVYYCAVPRIAARRGGFGYWGQGTLVTVSS VL: NFMLTQPHSVSESPGKTVTISCTRSSGNIDNNYVQWYQQRPGSSPTTVIYEDNQRPSGVPDRFSGSIDSSSNSASLTISGLKTEDEADYYCQSYDYDAQGVVFGGGTKLTVL	7.13
SR-AB41 (antibody, IgG1, V domains shown, Cycle 3, lineage SR-AB23) VH: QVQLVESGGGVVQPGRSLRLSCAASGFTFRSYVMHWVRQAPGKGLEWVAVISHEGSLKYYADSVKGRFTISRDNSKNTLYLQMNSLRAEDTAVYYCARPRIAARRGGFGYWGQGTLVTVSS VL: NFMLTQPHSVSESPGKTVTISCTRSSGNIDNNYVQWYQQRPGSSPTTVIYEDNQRPSGVPDRFSGSIDSSSNSASLTISGLKTEDEADYYCQSYDYDNQAVVFGGGTKLTVL	6.12
SR-AB44 (antibody, IgG1, V domains shown, Cycle 3, lineage SR-AB23) VH: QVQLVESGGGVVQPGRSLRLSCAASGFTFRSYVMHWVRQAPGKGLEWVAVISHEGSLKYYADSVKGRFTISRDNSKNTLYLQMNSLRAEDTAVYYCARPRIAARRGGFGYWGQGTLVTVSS VL: NFMLTQPHSVSESPGKTVTISCTRSHGNIDDNYVQWYQQRPGSSPTTVIYEDNVRPSGVPDRFSGSIDSSSNSASLTISGLKTEDEADYYCQSYDSDNQLVVFGGGTKLTVL	6.67

// query pKd value for entry SR-AB37 (antibody, IgG1, V domains shown, Cycle 3, lineage SR-AB22) VH: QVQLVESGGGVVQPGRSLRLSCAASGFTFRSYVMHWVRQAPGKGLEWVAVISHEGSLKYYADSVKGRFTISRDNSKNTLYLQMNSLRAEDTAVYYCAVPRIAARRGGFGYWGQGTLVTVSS VL: NFMLTQPHSVSESPGKTVTISCTRSSGLIDDNYVQWYQQRPGSSPTTVIYEDNQRPSGVPDRFSGSIDSSSNSASLTISGLKTEDEADYYCQSYDSDLQRVVFGGGTKLTVL 7.44

If you can, please state the reported pKd value of SR-AB31 (antibody, IgG1, V domains shown, Cycle 3, lineage SR-AB22) VH: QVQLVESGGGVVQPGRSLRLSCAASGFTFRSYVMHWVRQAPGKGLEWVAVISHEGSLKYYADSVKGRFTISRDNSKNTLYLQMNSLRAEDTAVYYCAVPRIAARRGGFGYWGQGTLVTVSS VL: NFMLTQPHSVSESPGKTVTISCTRSSGNIDNNYVQWYQQRPGSSPTTVIYEDNQRPSGVPDRFSGSIDSSSNSASLTISGLKTEDEADYYCQSYDFNNQGVVFGGGTKLTVL . 7.95
